Measured viability at 28.5 h, 10 µM accompanies every entry in the list below.
assay: in vitro; conditions: human, hela cells, % viability
measured-endpoint: viability at 28.5 h, 10 µM (%)

>>> readout_value("O=C(CN1CCOCC1)Nc1c2c(nc3ccccc13)N(c1ccccc1)CC2 [CBK111136G]")
87.9
>>> readout_value("CC1CCCCN1CC(C)(C)NC(=O)c1cc(C2CC2)on1 (stereo not drawn) [CBK281676]")
100
>>> readout_value("CC(=O)NC1(c2ccccc2F)CCN(CC(=O)N(C)C)CC1 [CBK283618]")
103
>>> readout_value("C#CCNC(=O)[C@@H]1Cc2cn(Cc3cc(C)on3)c3cccc(c23)[C@H](CC(C)C)N1 [CBK289426]")
90.4
>>> readout_value("CN1C(=O)C2(CC(=O)N(Cc3ccccc3)C2=O)c2cc(F)ccc21 (stereo not drawn) [CBK075268]")
98.6
>>> readout_value("COc1cc(CCc2cc(O)n3nc(C)c(-c4ccc(Cl)cc4)c3n2)on1 [CBK285681]")
91.3
>>> readout_value("COc1ccc(CCNC(=O)CN2CCCC2c2cnn(C)c2)cc1 (stereo not drawn) [CBK305371]")
84.2
>>> readout_value("COc1ccc(CN2CCC(N3CCc4ccccc4C3)CC2)cc1OCc1ccccc1 [CBK264629G]")
91.4
>>> readout_value("COc1ccc([C@@H]2CN(C)C[C@H]2NC(=O)Nc2ccc(Cl)c(Cl)c2)cc1OC [CBK081111]")
99.3
